A collection of compounds and their measured log10 ED50
tested on: Escherichia coli; experiment: In vivo protective dose was determined in mouse protection assay in Escherichia coli Vogel after subcutaneous administration; assay type: functional; conditions: sc, read-out: PD50
Transform log10 | Measure ED50 | Unit mg/kg

Sample records with log10 ED50:
- Compound: "CCN1CCC2(CCN(c3c(F)cc4c(=O)c(C(=O)O)cn(CC)c4c3F)C2)C1 (stereo unspecified)"
  Target entity: "Escherichia coli"
  Experimental result: 0.78
- Compound: "CCn1cc(C(=O)O)c(=O)c2c(F)c(F)c(N3CCC4(CCN(C)C4)C3)c(F)c21 (stereo unspecified)"
  Target entity: "Escherichia coli"
  Experimental result: 1.10
- Compound: "CCn1cc(C(=O)O)c(=O)c2cc(F)c(N3CCC4(CCN(C)C4)C3)c(F)c21 (stereo unspecified)"
  Target entity: "Escherichia coli"
  Experimental result: 0.53
- Compound: "CCn1cc(C(=O)O)c(=O)c2cc(F)c(N3CCC4(CCNC4)C3)c(F)c21 (stereo unspecified)"
  Target entity: "Escherichia coli"
  Experimental result: 1.18

Lookup: Endpoint output: log10 ED50 of O=C(O)c1cn(C2CC2)c2c(F)c(N3CCC4(CCNC4)C3)c(F)cc2c1=O (stereo unspecified) . Value?
Found: 0.85

Lookup: What log10 ED50 value was documented for this compound, CCn1cc(C(=O)O)c(=O)c2cc(F)c(N3CCC4(CCNC4)C3)nc21.Cl (stereo unspecified) ?
Found: 1.45

Lookup: So what's the measured log10 ED50 for this one? CN1CCC2(CCN(c3c(F)cc4c(=O)c(C(=O)O)cn(C5CC5)c4c3F)C2)C1 (stereo unspecified)
Found: 0.30
